Entry source: patent US8283465B2

Recorded IC50 for the following compounds
Target: human PHD2 (Homo sapiens)
Construct: made in house; host or cells: Sf9 insect cells (baculovirus, pVL1393 vector)
Sequence (Q9GZT9 whole entry): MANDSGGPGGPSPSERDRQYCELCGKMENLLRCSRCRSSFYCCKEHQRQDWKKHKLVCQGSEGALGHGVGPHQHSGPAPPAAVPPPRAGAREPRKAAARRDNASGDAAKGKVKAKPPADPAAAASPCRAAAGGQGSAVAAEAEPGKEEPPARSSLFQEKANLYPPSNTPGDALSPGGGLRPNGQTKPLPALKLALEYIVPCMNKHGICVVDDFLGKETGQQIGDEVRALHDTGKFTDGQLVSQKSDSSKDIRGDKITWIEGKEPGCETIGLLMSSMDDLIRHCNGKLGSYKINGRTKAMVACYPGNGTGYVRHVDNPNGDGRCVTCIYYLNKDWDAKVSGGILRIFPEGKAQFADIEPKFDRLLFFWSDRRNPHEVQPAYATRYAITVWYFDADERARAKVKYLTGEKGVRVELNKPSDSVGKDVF
Assay: Measurement of human PHD inhibitory activity (TR-FRET, hydroxylation of HIF-1α partial peptide)
Format: biochemical
Conditions: human PHD2 enzyme 1 nM, 25° C. 30 min, values consisting solely of numbers; read-out: IC50 (μM) in vitro, human PHD inhibitory activity
Structures can show the parent of a compound that is named as a salt.
Please state the figure in µM; there is no need to write the unit.

// known answers, use as guide
O=C(O)CNC(=O)c1c(O)cc(-c2ccc(F)c(Cl)c2)c2ncnn12 [Example 94, acetic acid hydrochloride] = 0.11
O=C(O)CNC(=O)c1c(O)c(-c2ccccc2)cn2cnnc12 = 1.57

GET /value?item= O=C(O)CNC(=O)c1c(O)cc(CCc2ccccc2C(F)(F)F)c2ncnn12 [Example 100, acetic acid hydrochloride] &field=IC50 returns 0.82

IC50 in this record for O=C(O)CNC(=O)c1c(O)cc(-c2ccc(Cl)cc2)c2ncnn12 : 0.16

Per the record, CCC(CC)Cc1cc(O)c(C(=O)NCC(=O)O)c2ncnn12 [Example 45, hydrochloride] has IC50 of 0.92

Record summary for C[C@H](NC(=O)c1c(O)cc(CCc2ccccc2)n2ncnc12)C(=O)O [Example 69, hydrochloride] : reported IC50 = 1.62

The reported IC50 of the compound O=C(O)CNC(=O)c1c(O)cc(-c2cccc(F)c2)n2ncnc12 [Example 42, hydrochloride] was 0.24

Data point: O=C(O)CNC(=O)c1c(O)cc(-c2ccc(F)c(Cl)c2)n2ncnc12 [Example 23, hydrochloride] ; IC50 = 0.19

Kindly note the recorded IC50 for O=C(O)CNC(=O)c1c(O)cc(CCc2cc(F)cc(F)c2)c2ncnn12 [Example 109, acetic acid hydrochloride] , which is 0.17

Entry O=C(O)CNC(=O)c1c(O)cc(-c2cc(C(F)(F)F)ccc2F)n2ncnc12 [Example 34, hydrochloride] — recorded IC50 = 0.43

Value of IC50 reported for the compound Cl.O=C(O)CNC(=O)c1c(O)ccn2c(CCC3CCCCC3)nnc12 [Example 115, acetic acid hydrochloride] is 1.8

For reference, reported IC50 for O=C(O)CNC(=O)c1c(O)cc(CCC2CCCC2)n2ncnc12 [Example 60, acetic acid hydrochloride] stands at 0.74

The reported value for O=C(O)CNC(=O)c1c(O)cc(CC2CCCC2)n2ncnc12 [Example 20, hydrochloride] in terms of IC50 is 0.59

Just so you know, measured IC50 for O=C(O)CNC(=O)c1c(O)cc(-c2ccccc2F)n2ncnc12 [Example 61, acetic acid hydrochloride] came out at 0.22

Record CCCCCCc1cc(O)c(C(=O)NCC(=O)O)c2ncnn12.Cl [Example 73, acetic acid hydrochloride] , field IC50: 7.09
